- Tested on: PPARg homodimer (NR concentration 180 nM)
- assay explanation: PBM binding z-score (relative to random genomic background probes); higher = stronger binding; sequences stand for … in GC…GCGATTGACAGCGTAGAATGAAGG
Entries annotated with measured PBM binding z-score
outcome measure: PBM binding z-score

>>> obs_value("CCTCGGAGGACAACAGGAGGTCGGAGCTGCCAGA")
-0.189
>>> obs_value("AGAATGAGGTTATACGTAGATCAGGGCAGAAAGT")
0.774
>>> obs_value("GGAACGAGGGGATTCGAGTTGATAGCATGGCGAT")
-1.3
>>> obs_value("CCGACTGGTGCATAAGGTTACCATAAGCCAGCCC")
0.502
>>> obs_value("CCTACTGGGCCATCAGGTCTTTGATATCAACGTT")
0.396
>>> obs_value("GCTAGCAGGTCATTTGGGTCACTCAATGACGGGC")
1.31
>>> obs_value("CGTCCAAAGTCAGAGAGGTCAGTGAATGCCGAGT")
1.79
>>> obs_value("TGAATGAGGTTAAAAGATCAGGGAACGTTGCAAA")
0.137
>>> obs_value("GATGCTAGGTCAACTGATGGTCAGCTAAAGCTCG")
1.48
>>> obs_value("GCTAGCAGGCCATTTGGGGCACTCAATGACGGGC")
-0.698
>>> obs_value("ATATATAGGTTACATCCGGGTCATTCAGGCTATG")
2.67
>>> obs_value("ACTATTAGTTGTCTTAGGGCAACCGATACGACGC")
0.545
>>> obs_value("TGAATGAGGTTAAAGATCAGCGAACGTGGCGTCG")
0.5
>>> obs_value("ATATGTAGGTTATCGGGTCATTCAGTTTGCGCAT")
2.67
>>> obs_value("TCAGACAGGTGAAGGTAATTCAGGTACGCAGTCG")
1.05
>>> obs_value("CCAGACAGATGAAAGGTAACTCAGTCTGGTACGC")
0.444
>>> obs_value("CCTACTGGGCCATCAGGTCATTCATATCAACGTT")
1.48
>>> obs_value("AGTCAAAGTTCAGTACGAGGTAACGTAAAGCACG")
1.69
>>> obs_value("AGAATGAGGTTACCAAAGATAAGGGAAACGCTTG")
1.01
>>> obs_value("GCTCGGAGGCCAAGGTCAGAGCTTTGTCCGTAGA")
1.18
>>> obs_value("GTTATTAGTTGAAAGGGCAACCGAATGATTCTCG")
3.38
>>> obs_value("CCTTACGGGTCACTCCAGGTTATAGCTTCGGAGT")
2.23
>>> obs_value("CGAACTAGATCATCCAGGACAGTGAATACATTGA")
0.315
>>> obs_value("CGAACTAGGTCATTGACCGGACAGTGAATAGTAA")
0.696
>>> obs_value("CGACCTAGGTCATTGACAGGACAGTGAATAGTAA")
2.3
>>> obs_value("TAGCCTAGGTCATTGGGCCAGTTTAGTACGCATC")
0.893
